Measured concentration at 1 h by item
- Protocol notes: Determination of plasma and brain compound concentrations
- Format: in vivo
- Recorded conditions: brain, ip; mouse, 1 hour after a 5 mg/kg intraperitoneal injection; read-out: Brain nM (SD)

Compound	concentration at 1 h
C[C@H](Nc1nc(-c2ccccn2)nc(Cl)c1-c1c(F)cc(F)cc1F)C(F)(F)F [CNDR-51552]	1480 nM
C[C@H](Nc1nc(-c2ccccn2)nc(Cl)c1-c1c(F)cc(OCCCN(C)C)cc1F)C(F)(F)F [CNDR-51561]	701 nM

*Q* Returns the measured concentration at 1 h for the input compound. Input: C[C@H](Nc1c(-c2c(F)cc(OCCCN(C)C)cc2F)c(Cl)nc2ncnn12)C(F)(F)F [CNDR-51555]
*A* 1350 nM

*Q* Returns the measured concentration at 1 h for the input compound. Input: C[C@H](Nc1nc(-c2cnccn2)nc(Cl)c1-c1c(F)cc(F)cc1F)C(F)(F)F [CNDR-51549]
*A* 2870 nM

---

- Protocol notes: Determination of plasma and brain compound concentrations
- Assay type: in vivo
- Recorded conditions: plasma, ip; mouse, 1 hour after a 5 mg/kg intraperitoneal injection; read-out: Plasma nM (SD)
Measured concentration at 1 h by item
Give the value in nM but do not write nM after it.

Molecule	Readout number
C[C@H](Nc1nc(-c2cnccn2)nc(Cl)c1-c1c(F)cc(F)cc1F)C(F)(F)F [CNDR-51549]	4950
C[C@H](Nc1c(-c2c(F)cc(OCCCN(C)C)cc2F)c(Cl)nc2ncnn12)C(F)(F)F [CNDR-51555]	4930
C[C@H](Nc1nc(-c2ccccn2)nc(Cl)c1-c1c(F)cc(OCCCN(C)C)cc1F)C(F)(F)F [CNDR-51561]	2120

// next entry
*Q* Returns the measured concentration at 1 h for the input molecule. Input: C[C@H](Nc1nc(-c2ccccn2)nc(Cl)c1-c1c(F)cc(F)cc1F)C(F)(F)F [CNDR-51552]
*A* 4320
